- tested-target: Fructose-bisphosphate aldolase (Mycobacterium tuberculosis (strain ATCC 25618 / H37Rv)) (UniProt P9WQA3)
- Sequence (P9WQA3 whole entry, looked up): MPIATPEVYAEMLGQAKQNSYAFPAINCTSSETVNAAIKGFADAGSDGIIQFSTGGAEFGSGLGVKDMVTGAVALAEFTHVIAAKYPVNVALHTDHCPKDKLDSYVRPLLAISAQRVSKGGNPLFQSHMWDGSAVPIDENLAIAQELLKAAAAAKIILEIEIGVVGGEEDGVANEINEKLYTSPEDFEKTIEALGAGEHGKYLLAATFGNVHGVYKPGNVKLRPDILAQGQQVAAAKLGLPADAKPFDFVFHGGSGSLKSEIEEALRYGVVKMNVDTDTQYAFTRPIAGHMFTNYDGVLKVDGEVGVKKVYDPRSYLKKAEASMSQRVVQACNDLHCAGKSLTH
- procedure-text: Mtb FBA enzyme inhibitors, primary screen, biochemical, fluorescence, strain H37Rv (AID 588726);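 note: 0% = vehicle and 100% = reference inhibitor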
- assay-conditions: purified M. tuberculosis FBA, fluorescence read-out, at 1 µM, hits give high values
Out of some 360,000 compounds screened, about 8,200 (2.3%) were called active. Many of the other results were omitted from the sample, so actives are more common in it than they were.

molecule	unit-name	inhibition
COC(=O)c1cccnc1NC(=S)NC(C)C	%	-6.99
COc1ccc(CCNC(=O)CCC(=O)NC2CCCCC2)cc1OC	%	0.12
Cc1ccc(Br)c(NS(=O)(=O)c2cccc(C(=O)N3CCNC(=O)C3)c2)c1	%	-3.11
CCCN(CCc1ccccc1)C1CCc2c(O)cccc2C1 (stereo unspecified)	%	3.16
Cc1cc(C)cc(NC(=O)CSc2ccccc2)c1	%	70.8
CCOc1ccc(-c2noc(CCC(=O)NC3CCCC3)n2)cc1OC	%	1.23
CCN(CC)S(=O)(=O)c1ccc(NC(=O)c2cccnc2Cl)c(NC(=O)c2cccnc2Cl)c1	%	-0.1
CC(Sc1nnc(-c2ccccc2F)n1C1CC1)C(N)=O (stereo unspecified)	%	-0.8
CCC(C)(C)n1nnnc1CN1CCN(c2nc3ccc(C)cc3cc2C#N)CC1	%	3.89
CCCCN1CC(COc2ccccc2)Oc2cccc(F)c2S1(=O)=O (stereo unspecified)	%	-2.92
COc1ccc(C(CNC(=O)CSc2ccccc2)N2CCOCC2)cc1 (stereo unspecified)	%	2.08

----------
- tested-target: Fructose-bisphosphate aldolase (Mycobacterium tuberculosis (strain ATCC 25618 / H37Rv)) (UniProt P9WQA3)
- procedure-text: Mtb FBA enzyme inhibitors, primary screen, biochemical, fluorescence, strain H37Rv (AID 588726);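 note: 0% = vehicle and 100% = reference inhibitor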
- assay-conditions: purified M. tuberculosis FBA, fluorescence read-out, at 1 µM, hits give high values
Hit rate of the full screen: of about 360,000 compounds, about 8,200 (2.3%) were called active. This is one part of a sample in which actives are shown more often than they occur.
Documented inhibition across a set of molecules
outcome-measure: inhibition (%)

molecule	outcome-measure	unit-name	result-number
Nc1ccccc1-c1nc2ccncc2[nH]1	inhibition	%	83.7
CN(CC(=O)NCCc1ccccn1)S(=O)(=O)c1ccc(Cl)cc1	inhibition	%	-1.58
c1ccc2cc(CCCc3cc4ccccc4cn3)ncc2c1	inhibition	%	5.36
O=C1N=C(N2CCOCC2)CS1	inhibition	%	-1.54
COc1cc2nc(N3CCN(C(=O)[C@@H]4CCCO4)CC3)nc(N)c2cc1OC	inhibition	%	95.4
CSCCC(Nc1ccc(S(=O)(=O)N2CCOCC2)cc1[N+](=O)[O-])C(=O)OCC(=O)N(C(C)C)C(C)C (stereo unspecified)	inhibition	%	-2.32
O=C(C1CCCO1)N1CCC(c2nc3ccccc3[nH]2)CC1 (stereo unspecified)	inhibition	%	-0.87
O=C(c1ccccc1Cl)N(Cc1ccccc1F)N1C(=O)CCCC1=O	inhibition	%	-2.23
COc1cccc2oc(CCc3ccccc3)cc(=O)c12	inhibition	%	33.4
CC(=O)Nc1ccc(S(=O)(=O)NCCC(=O)N2CCN(c3ccccc3Cl)CC2)cc1	inhibition	%	3.53
CCOc1ccc(C(=O)CCC(=O)NC2=NCCS2)cc1	inhibition	%	-2.69

----------
- tested-target: Fructose-bisphosphate aldolase (Mycobacterium tuberculosis (strain ATCC 25618 / H37Rv))
- procedure-text: Mtb FBA enzyme inhibitors, primary screen, biochemical, fluorescence, strain H37Rv (AID 588726);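 note: 0% = vehicle and 100% = reference inhibitor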
- assay-conditions: purified M. tuberculosis FBA, fluorescence read-out, at 1 µM
The whole screen tested about 360,000 compounds, of which about 8,200 (2.3%) were called active. No stated cut-off is given here; in the data, active means inhibition above about 27%; inactive means the rest. Many of the other results were omitted from the sample, so actives are more common in it than they were.
Possible outcomes: class 1 = active, class 0 = inactive

compound	tested-target	label-class
CC/C(=C\c1ccc(Cl)cc1)c1ccncc1	Fructose-bisphosphate aldolase (Mycobacterium tuberculosis (strain ATCC 25618 / H37Rv))	class 0
CN(c1ccc2nc3ccccc3c(=O)n2n1)C1CCCCC1	Fructose-bisphosphate aldolase (Mycobacterium tuberculosis (strain ATCC 25618 / H37Rv))	class 0
Cc1cccc(NC(=O)c2ccc(S(=O)(=O)N(C)CC3CCCO3)cc2)c1C (centres undefined)	Fructose-bisphosphate aldolase (Mycobacterium tuberculosis (strain ATCC 25618 / H37Rv))	class 0
CN(C)C(=O)c1coc2nc3ccccc3nc12	Fructose-bisphosphate aldolase (Mycobacterium tuberculosis (strain ATCC 25618 / H37Rv))	class 1
COc1cccc2cc(C(=O)N(C)C)c(=O)oc12	Fructose-bisphosphate aldolase (Mycobacterium tuberculosis (strain ATCC 25618 / H37Rv))	class 0
O=[N+]([O-])c1cccc(C=NN=Cc2ccccc2O)c1	Fructose-bisphosphate aldolase (Mycobacterium tuberculosis (strain ATCC 25618 / H37Rv))	class 0
Cc1ccsc1C1C(C#N)=C(N)OC2=C1C(=O)CC(C)(C)C2 (centres undefined)	Fructose-bisphosphate aldolase (Mycobacterium tuberculosis (strain ATCC 25618 / H37Rv))	class 0
O=C(NNc1c2ccccc2nc2ccccc12)c1cc2ccccc2cc1O	Fructose-bisphosphate aldolase (Mycobacterium tuberculosis (strain ATCC 25618 / H37Rv))	class 0
COc1cc2c(cc1O)C(SC)=NC(C)(C)C2	Fructose-bisphosphate aldolase (Mycobacterium tuberculosis (strain ATCC 25618 / H37Rv))	class 0
C/C(=C\c1ccco1)CN1CCC(N2CCC(C(=O)N3CCOCC3)CC2)CC1	Fructose-bisphosphate aldolase (Mycobacterium tuberculosis (strain ATCC 25618 / H37Rv))	class 0
CCCCC[C@@H]1C=C(C(=O)OCC)[C@H](c2ccccc2)N1S(=O)(=O)c1ccc(C)cc1	Fructose-bisphosphate aldolase (Mycobacterium tuberculosis (strain ATCC 25618 / H37Rv))	class 0
COC(=O)c1ccccc1NC(=O)C1CC(=O)N(c2ccc(OC)cc2)C1 (centres undefined)	Fructose-bisphosphate aldolase (Mycobacterium tuberculosis (strain ATCC 25618 / H37Rv))	class 0
CC(C(=O)N1CCN(c2ccccc2F)CC1)c1ccc([N+](=O)[O-])cc1 (centres undefined)	Fructose-bisphosphate aldolase (Mycobacterium tuberculosis (strain ATCC 25618 / H37Rv))	class 0
OC(Cn1c2ccccc2c2ccccc21)C[n+]1ccccc1 (centres undefined)	Fructose-bisphosphate aldolase (Mycobacterium tuberculosis (strain ATCC 25618 / H37Rv))	class 0
COc1nc(N=C(N)N)nc2c(C)cccc12	Fructose-bisphosphate aldolase (Mycobacterium tuberculosis (strain ATCC 25618 / H37Rv))	class 1
COc1cc2c(cc1OC)C(C(C)C)=NC(C)(C)C2	Fructose-bisphosphate aldolase (Mycobacterium tuberculosis (strain ATCC 25618 / H37Rv))	class 1
CNC(=O)C[C@H]1C(=O)N(Cc2ccccc2)C[C@@H]1CSC	Fructose-bisphosphate aldolase (Mycobacterium tuberculosis (strain ATCC 25618 / H37Rv))	class 0
CCCCNCc1ccc(SC)cc1	Fructose-bisphosphate aldolase (Mycobacterium tuberculosis (strain ATCC 25618 / H37Rv))	class 0
Cn1ncc2c(N3CCCCC3)nc(NCCCO)nc21	Fructose-bisphosphate aldolase (Mycobacterium tuberculosis (strain ATCC 25618 / H37Rv))	class 0
Cc1ccccc1NC(=O)c1ccc(COc2ccc3c(C)cc(=O)oc3c2)cc1	Fructose-bisphosphate aldolase (Mycobacterium tuberculosis (strain ATCC 25618 / H37Rv))	class 0
O=[N+]([O-])c1cccc(/C=N/Nc2ncc(Br)cn2)c1	Fructose-bisphosphate aldolase (Mycobacterium tuberculosis (strain ATCC 25618 / H37Rv))	class 1
COc1ccc(-c2cc(=O)oc3cc(OCC(=O)N(C)C4CCS(=O)(=O)C4)ccc23)cc1 (centres undefined)	Fructose-bisphosphate aldolase (Mycobacterium tuberculosis (strain ATCC 25618 / H37Rv))	class 0
Cc1nc(N=C(N)N)nc2c(C)cccc12	Fructose-bisphosphate aldolase (Mycobacterium tuberculosis (strain ATCC 25618 / H37Rv))	class 0
CN(C(=O)CSc1nnnn1-c1ccccc1)C1CCCCC1	Fructose-bisphosphate aldolase (Mycobacterium tuberculosis (strain ATCC 25618 / H37Rv))	class 0

----------
Documented inhibition across a set of molecules
- tested-target: Fructose-bisphosphate aldolase (Mycobacterium tuberculosis (strain ATCC 25618 / H37Rv)) (UniProt P9WQA3)
- procedure-text: Mtb FBA enzyme inhibitors, primary screen, biochemical, fluorescence, strain H37Rv (AID 588726);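 note: 0% = vehicle and 100% = reference inhibitor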
- assay-conditions: purified M. tuberculosis FBA, fluorescence read-out, at 1 µM, hits give high values
The whole screen tested about 360,000 compounds, of which about 8,200 (2.3%) were called active. Many of the other results were omitted from the sample, so actives are more common in it than they were.

molecule	inhibition [%]
CCCCCn1c(=O)c(C(=O)OCC)c(Cl)c2ccccc21	1.96
COc1cc(OC)cc(-c2c(-c3ccc(F)cc3)c3cc(-c4ccc5cc[nH]c5c4)ccc3n2C)c1	26.4
CC(=O)C1=C(C)NC(C)=C(C(C)=O)C1c1cn(-c2ccccc2)nc1-c1cccs1	0.45
Cc1cc(C(C)(C)C)oc1C(=O)N(CC(=O)NC1CCCC1)Cc1ccc(Cl)cc1	3.61
O=C(Cc1cccs1)N(CC1CCCO1)C1(C(=O)NC2CCCCC2)CCCCC1 (configuration not stated)	-1.48
Cc1cc(Cl)ccc1N1C(=O)CC(SCCC(=O)O)C1=O (configuration not stated)	5.32
O=C(O)C(=Cc1ccccc1[N+](=O)[O-])c1ccccc1	3.82
CSc1ccc(/C=N/N2CCN(Cc3ccccc3Cl)CC2)cc1	-4.01
O=C(NC1CCCC1)C(c1c(F)cccc1Cl)N(C(=O)c1csnn1)C1CC1 (configuration not stated)	-1.18
Cc1ccc(-c2nn(-c3ccccc3)cc2/C=C/C(=O)Nc2cccc(S(N)(=O)=O)c2)cc1	2.47
O=C(O)CC(Cn1cnnn1)c1ccccc1 (configuration not stated)	3.12
COc1ccc(-c2c(-c3cc(OC)cc(OC)c3)n(C)c3ccc(-c4ccn[nH]4)cc23)cc1	41.1
Cc1cc(Br)ccc1SCC(=O)OCC(=O)NCc1ccc2c(c1)OCO2	-1.37
C/C(=N/NC(=O)CN1CCN(S(=O)(=O)c2ccc(Br)cc2)CC1)c1ccncc1	-1.72
COc1cc(OC)cc(-c2c(-c3cccs3)c3cc(-c4ccc(OC)nc4)ccc3n2C)c1	1.28
C[N+]1(CCNC(=O)/C=N/O)CCCCC1	4.51
C=CCNc1nc(N)c(C(=C(C#N)C#N)c2ccccc2)s1	135
CCC(Cc1ccccc1)NC(=O)C1CCCCC1 (configuration not stated)	-3.87
CCCn1c(=O)c(C(=O)Nc2cc(C)ccn2)c(O)c2ccccc21	1.3
Cc1nn(Cc2ccccc2)c(C)c1CNC(=O)c1ccc(F)c(S(=O)(=O)N2CCOCC2)c1	0.09
CC(=O)c1cccc(-n2nnnc2SCC(=O)NNC(=O)C2CCCCC2)c1	3.69
COc1ccc(NC(=S)NCC2CCN(c3ccc(OC)cc3)C2)cc1 (configuration not stated)	-3.11

Where do the numbers come from? From PubChem BioAssay AID588726.
